Tested on: LOC_OS04G57630-cb004;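 also: purified Escherichia coli-expressed rice kinase domain construct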
assay_remarks: thermal shift delta Tm vs DMSO control; higher = stronger stabilization (binding)
measurement_conditions: 12.5 µM; protein concentration 2 µM
Threshold check on thermal shift delta Tm: at or above 0.3 °C gives Met, strictly below gives Not met.

Recorded results for 2 compounds are shown here.
INSERT INTO measurements (compound, experimental_system, discrete_label) VALUES
  ('O=C(Nc1nc2cccc(-c3ccc(CN4CCS(=O)(=O)CC4)cc3)n2n1)C1CC1', 'LOC_OS04G57630-cb004', 'Not met'),
  ('CCS(=O)(=O)N1CC(CC#N)(n2cc(-c3ncnc4[nH]ccc34)cn2)C1', 'LOC_OS04G57630-cb004', 'Not met');

Query string: Item COc1cc(F)c(F)c(Nc2ccc(I)cc2F)c1NS(=O)(=O)C1(C[C@H](O)CO)CC1 [Refametinib (RDEA119, Bay 86-9766)] with thermal shift delta Tm of 0.3 °C or above?
Result string: Not met

Query string: Item CC(C)(O)CC(=O)NCCn1ccc2ncnc(Nc3ccc(Oc4cccc(C(F)(F)F)c4)c(Cl)c3)c21 with thermal shift delta Tm of 0.3 °C or above?
Result string: Met

Query string: Item O=C1Nc2ccc(CN3C(=O)CSC3=O)cc2/C1=C/c1cc(CN2CCOCC2)c[nH]1 with thermal shift delta Tm of 0.3 °C or above?
Result string: Met
